experimental_details: Tigecycline plasma PK and % F after PO enteric-coated capsule in dogs
Type: in vivo, Beagle dogs
experimental_context: female, beagle, dog, plasma, po, 15 mg, Tigecycline Plasma Concentration, 30 min; PO 15 mg enteric-coated capsule with 500 mg CA and 100 mg LLC, SC424; mean
recorded_metric: concentration at 30 min (ng/mL)

1) CN(C)c1cc(NC(=O)CNC(C)(C)C)c(O)c2c1C[C@H]1C[C@H]3[C@H](N(C)C)C(O)=C(C(N)=O)C(=O)[C@@]3(O)C(O)=C1C2=O	0

* * *

experimental_details: Tigecycline plasma PK and % F after intraduodenal (ID) injection in anesthetized rats
Format: in vivo, Sprague-Dawley Rats
experimental_context: female, Sprague-Dawley, rat, plasma, other: intraduodenal bolus injection, 9 mg/kg, pH 3.5, ID, 100 mM CA (pH 3.5), 26 mM LLC, 9.0 mg/kg (RA853); 10 min
Method: Animals weighed approximately 250 g at the time of testing. Rats were fasted overnight (with water available), prior to dosing. Intravenous (IV) doses were administered as a bolus injection into the left carotid […] at a dose volume of 1.6 mL/kg. […] Female rats were maintained in groups of 3 per polycarbonate (or equivalent) shoebox cage with fresh wood chip bedding at 20-22° C. under a 12 hour on/off light:dark cycle. […] Animal weights were determined post-anesthesia induction. […]
recorded_metric: concentration at 10 min (ng/mL)

1) CN(C)c1cc(NC(=O)CNC(C)(C)C)c(O)c2c1C[C@H]1C[C@H]3[C@H](N(C)C)C(O)=C(C(N)=O)C(=O)[C@@]3(O)C(O)=C1C2=O [Tigecycline]	1770

* * *

experimental_details: Kanamycin and tobramycin plasma PK after IV bolus in dogs
Assay type: in vivo, Beagle dogs
experimental_context: female, Beagle, dog, plasma, iv, 0.1 mg, single IV bolus 0.10 mg; 20 min
recorded_metric: concentration at 20 min (ng/mL)

1) NC[C@H]1O[C@H](O[C@H]2[C@H](O)[C@@H](O[C@H]3O[C@H](CO)[C@@H](O)[C@H](N)[C@H]3O)[C@H](N)C[C@@H]2N)[C@H](O)[C@@H](O)[C@@H]1O	32.1

* * *

experimental_details: Tigecycline plasma PK and % F after intraduodenal (ID) injection in anesthetized rats
Assay type: in vivo, Sprague-Dawley Rats
experimental_context: female, Sprague-Dawley, rat, plasma, 4.6 mg/kg, RA861, ID, 400 mM CA/26 mM LLC, mean dose 4.6 mg/kg; read-out: % F, mean
recorded_metric: bioavailability (%)

1. CN(C)c1cc(NC(=O)CNC(C)(C)C)c(O)c2c1C[C@H]1C[C@H]3[C@H](N(C)C)C(O)=C(C(N)=O)C(=O)[C@@]3(O)C(O)=C1C2=O	2.1

* * *

experimental_details: Tigecycline plasma PK and % F after intraduodenal (ID) injection in anesthetized rats
Assay type: in vivo, Sprague-Dawley Rats
experimental_context: female, Sprague-Dawley, rat, plasma, […], RA869, ID, 26 mM LLC only, […]; read-out: Cmax, mean
recorded_metric: Cmax (ng/mL)

1. CN(C)c1cc(NC(=O)CNC(C)(C)C)c(O)c2c1C[C@H]1C[C@H]3[C@H](N(C)C)C(O)=C(C(N)=O)C(=O)[C@@]3(O)C(O)=C1C2=O	105

* * *

experimental_details: Tigecycline plasma PK after IV bolus in dogs
Assay type: in vivo, Beagle dogs
experimental_context: female, beagle, dog, plasma, iv, 0.08 mg/kg, IV bolus 1 mg (0.08 mg/kg), SC427; read-out: AUC(0-t), mean
recorded_metric: AUC(0-t)

1) CN(C)c1cc(NC(=O)CNC(C)(C)C)c(O)c2c1C[C@H]1C[C@H]3[C@H](N(C)C)C(O)=C(C(N)=O)C(=O)[C@@]3(O)C(O)=C1C2=O	72.4 ng·h/mL
